Sourced from the Kinase Knowledgebase extract (Sharma et al. 2016)

- target.or.system: MAPK14 (human)
- procedure.text: Inhibition of MAPK14 Kinase Activity by PHAS-I Assay
- experimental.context: concentration not given here
reported.metric: inhibition (%)

>>> observed_value("O=C(NCCc1[nH]nc(-c2ccc(F)cc2)c1-c1ccncc1)Nc1ccc(-c2ccccc2)cc1")
35
>>> observed_value("O=C(NCCc1[nH]nc(-c2ccc(F)cc2)c1-c1ccncc1)c1ccncc1")
69
>>> observed_value("Cc1c(-c2ccncc2)c(-c2ccc(F)cc2)nn1CC(=O)Nc1ccccc1Sc1ccc([N+](=O)[O-])cn1")
90
>>> observed_value("Cc1c(-c2ccncc2)c(-c2ccc(F)cc2)nn1CC(=O)Nc1ccccc1C(=O)NC(C)c1ccccc1 (centres undefined)")
86
>>> observed_value("O=C(NCCc1[nH]nc(-c2ccc(F)cc2)c1-c1ccncc1)NC(=O)c1ccccc1")
67
>>> observed_value("O=S(=O)(NCCCc1[nH]nc(-c2ccc(F)cc2)c1-c1ccncc1)c1ccccc1")
74
>>> observed_value("CCN(CC)CCN(Cc1ccc(Cl)cc1)C(=O)Cn1nc(-c2ccc(F)cc2)c(-c2ccncc2)c1C")
55
>>> observed_value("CCCCS(=O)(=O)NCCc1[nH]nc(-c2ccc(F)cc2)c1-c1ccncc1")
84

A = Cc1c(-c2ccncc2)c(-c2ccc(F)cc2)nn1CC(=O)NC(C)c1ccc(Br)cc1 (centres undefined)
B = Cc1c(-c2ccncc2)c(-c2ccc(F)cc2)nn1CC(=O)N1CCC[C@H]1CN1CCCC1
Req: Could you kindly indicate whether A or B has the higher inhibition value? Reply briefly: the label of your chosen item.
Resp: A
